- test system: Ubiquitin-conjugating enzyme E2 N (Homo sapiens, UniProt P61088);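 note: Dose-response confirmation in a TR-FRET assay detecting UBC13-driven polyubiquitin chain formation, inhibition measured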
- Sequence (P61088 whole entry): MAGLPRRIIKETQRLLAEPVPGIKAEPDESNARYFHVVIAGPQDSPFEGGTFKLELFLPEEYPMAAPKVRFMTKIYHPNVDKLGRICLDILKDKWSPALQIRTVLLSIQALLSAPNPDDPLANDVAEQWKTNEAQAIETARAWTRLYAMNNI
- Assay type: functional
Calls of active or inactive are those of the source.
Respond with a class label; see yes for active, no for inactive

molecule	category
COC(=O)C1=C(C)N(Cc2ccccc2)C(NCCc2c[nH]c3ccccc23)=N[C@H]1c1cccc(C(F)(F)F)c1	no
CNC[C@H](Cc1ccccc1)NC[C@@H](Cc1cccc2ccccc12)NCCc1ccc(C)cc1	yes
Cc1c(NC(=O)CCCCCN2C(=O)c3ccccc3C2=O)c(=O)n(-c2ccccc2)n1C	yes
C#CCOCCOCCOCCNc1nc(N2CCN(C(=O)[C@H](CCCCN)n3cc(CN)nn3)CC2)nc(N2CCN(C(=O)[C@H](CCCN=C(N)N)n3cc(C(N)[C@H](C)CC)nn3)CC2)n1 (some centres undefined)	yes
COc1ccccc1NC(=O)c1c(/N=C/c2ccccc2O)cnn1C	yes
COCCCNC(=S)NNC(=O)c1ccccn1	no
COc1ccccc1OCCNC(=O)c1cccc(S(=O)(=O)N2CCN(Cc3ccccc3)CC2)c1	no
CC(C)c1ccc(NC(=O)C[n+]2ccn(C3=C([O-])c4ccccc4C3=O)c2)cc1	yes

With those in mind, consider the next molecule.
[Q] Field: outcome | Entry: `COc1ccc(C2=Nn3c(nnc3-c3ccccc3F)SC2)cc1OC1CCCC1`
[A] no

---

- test system: Caspase-3 (Homo sapiens, UniProt P42574);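 note: Dose-response selectivity test against caspase-3 for candidate inhibitors of sentrin-specific proteases (SENPs)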
- Type: functional
Active and inactive are the calls of the source.
Recorded IC50 values for a group of compounds are listed next.

structure smiles string	IC50
O=C(N/N=C/c1c(O)ccc2ccccc12)c1[nH]ncc1Br	27.7 µM (active)
Nc1nnc2c(n1)CCCC2	14.3 µM (active)
CCOc1ccc2nc(NC(=O)Nc3cccs3)sc2c1	29.9 µM (active)

Okay, next one:
[Q] Kindly state the measured IC50 obtained for `O=C(Nc1cccc(F)c1)Nc1ccc2c(c1)CCC2` with Caspase-3 (Homo sapiens, UniProt P42574).
[A] 57.8 µM (active)

---

- test system: Cytochrome P450 2D6 (Homo sapiens, UniProt P10635);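 note: CYP2D6 member of a cytochrome P450 panel assay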
- Sequence (P10635 whole entry): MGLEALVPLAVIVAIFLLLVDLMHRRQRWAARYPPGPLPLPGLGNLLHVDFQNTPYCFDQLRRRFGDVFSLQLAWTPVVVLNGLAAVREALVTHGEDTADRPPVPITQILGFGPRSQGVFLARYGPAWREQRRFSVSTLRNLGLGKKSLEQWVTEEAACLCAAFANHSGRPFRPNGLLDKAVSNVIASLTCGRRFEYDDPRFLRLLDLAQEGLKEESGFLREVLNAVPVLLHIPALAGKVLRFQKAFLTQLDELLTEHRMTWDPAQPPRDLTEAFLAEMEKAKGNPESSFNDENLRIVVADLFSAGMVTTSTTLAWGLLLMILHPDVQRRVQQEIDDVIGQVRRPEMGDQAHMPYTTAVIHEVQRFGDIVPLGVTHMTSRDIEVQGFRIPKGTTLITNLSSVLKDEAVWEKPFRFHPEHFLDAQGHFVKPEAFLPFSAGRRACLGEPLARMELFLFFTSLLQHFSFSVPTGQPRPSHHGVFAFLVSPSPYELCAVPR
metric: AC50

structure smiles string	metric	observed result
COc1ccc(OC)c(S(=O)(=O)N2CCC(C(=O)NCCc3ccccc3)CC2)c1	AC50	2.24 µM (inconclusive)
COc1cc2nc(N3CCN(C(=O)OCc4ccccc4)[C@H](C(=O)NC(C)(C)C)C3)nc(N)c2cc1OC	AC50	31.6 µM (inconclusive)
Cn1c(Sc2ccc(-c3cccnc3)n2C)ccc1-c1cccnc1	AC50	3.16 µM (inconclusive)

[Q] Kindly state the measured AC50 obtained for `COc1ccccc1CCn1c(=O)c(-c2cccc(F)c2)nc2cncnc21` with Cytochrome P450 2D6 (Homo sapiens, UniProt P10635).
[A] 39.8 µM (inconclusive)

[Q] Kindly state the measured AC50 obtained for `O=C(c1cc(C(F)(F)F)cc(C(F)(F)F)c1)N1CCC2(CCN(Cc3nccs3)CC2)CC1` with Cytochrome P450 2D6 (Homo sapiens, UniProt P10635).
[A] 10 µM (inconclusive)

[Q] Kindly state the measured AC50 obtained for `CCC(=O)Nc1ccc(C(=O)OCC(=O)c2ccc(C)c([N+](=O)[O-])c2)cc1` with Cytochrome P450 2D6 (Homo sapiens, UniProt P10635).
[A] 35.5 µM (inconclusive)

[Q] Kindly state the measured AC50 obtained for `O=C(c1ccco1)N1CCC2(CCN(Cc3ccncc3)CC2)CC1` with Cytochrome P450 2D6 (Homo sapiens, UniProt P10635).
[A] 10 µM (inconclusive)

---

- test system: Peroxisome proliferator-activated receptor gamma/Nuclear receptor coactivator 1 (Homo sapiens)
- Sequence (P37231 whole entry): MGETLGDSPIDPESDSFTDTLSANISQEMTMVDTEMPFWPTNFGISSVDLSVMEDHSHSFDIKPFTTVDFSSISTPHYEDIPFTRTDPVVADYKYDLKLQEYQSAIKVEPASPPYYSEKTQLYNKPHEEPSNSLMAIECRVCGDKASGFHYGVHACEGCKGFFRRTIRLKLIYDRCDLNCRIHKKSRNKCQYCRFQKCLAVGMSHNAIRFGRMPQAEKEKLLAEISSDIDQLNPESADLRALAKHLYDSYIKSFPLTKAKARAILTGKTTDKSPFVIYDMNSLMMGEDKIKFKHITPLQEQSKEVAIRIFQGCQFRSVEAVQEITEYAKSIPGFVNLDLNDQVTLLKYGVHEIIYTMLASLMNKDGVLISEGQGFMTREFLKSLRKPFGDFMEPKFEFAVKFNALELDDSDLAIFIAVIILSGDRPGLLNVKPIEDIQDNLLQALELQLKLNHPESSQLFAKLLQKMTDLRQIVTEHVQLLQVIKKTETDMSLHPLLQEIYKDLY
- Sequence (Q15788 whole entry, further chain): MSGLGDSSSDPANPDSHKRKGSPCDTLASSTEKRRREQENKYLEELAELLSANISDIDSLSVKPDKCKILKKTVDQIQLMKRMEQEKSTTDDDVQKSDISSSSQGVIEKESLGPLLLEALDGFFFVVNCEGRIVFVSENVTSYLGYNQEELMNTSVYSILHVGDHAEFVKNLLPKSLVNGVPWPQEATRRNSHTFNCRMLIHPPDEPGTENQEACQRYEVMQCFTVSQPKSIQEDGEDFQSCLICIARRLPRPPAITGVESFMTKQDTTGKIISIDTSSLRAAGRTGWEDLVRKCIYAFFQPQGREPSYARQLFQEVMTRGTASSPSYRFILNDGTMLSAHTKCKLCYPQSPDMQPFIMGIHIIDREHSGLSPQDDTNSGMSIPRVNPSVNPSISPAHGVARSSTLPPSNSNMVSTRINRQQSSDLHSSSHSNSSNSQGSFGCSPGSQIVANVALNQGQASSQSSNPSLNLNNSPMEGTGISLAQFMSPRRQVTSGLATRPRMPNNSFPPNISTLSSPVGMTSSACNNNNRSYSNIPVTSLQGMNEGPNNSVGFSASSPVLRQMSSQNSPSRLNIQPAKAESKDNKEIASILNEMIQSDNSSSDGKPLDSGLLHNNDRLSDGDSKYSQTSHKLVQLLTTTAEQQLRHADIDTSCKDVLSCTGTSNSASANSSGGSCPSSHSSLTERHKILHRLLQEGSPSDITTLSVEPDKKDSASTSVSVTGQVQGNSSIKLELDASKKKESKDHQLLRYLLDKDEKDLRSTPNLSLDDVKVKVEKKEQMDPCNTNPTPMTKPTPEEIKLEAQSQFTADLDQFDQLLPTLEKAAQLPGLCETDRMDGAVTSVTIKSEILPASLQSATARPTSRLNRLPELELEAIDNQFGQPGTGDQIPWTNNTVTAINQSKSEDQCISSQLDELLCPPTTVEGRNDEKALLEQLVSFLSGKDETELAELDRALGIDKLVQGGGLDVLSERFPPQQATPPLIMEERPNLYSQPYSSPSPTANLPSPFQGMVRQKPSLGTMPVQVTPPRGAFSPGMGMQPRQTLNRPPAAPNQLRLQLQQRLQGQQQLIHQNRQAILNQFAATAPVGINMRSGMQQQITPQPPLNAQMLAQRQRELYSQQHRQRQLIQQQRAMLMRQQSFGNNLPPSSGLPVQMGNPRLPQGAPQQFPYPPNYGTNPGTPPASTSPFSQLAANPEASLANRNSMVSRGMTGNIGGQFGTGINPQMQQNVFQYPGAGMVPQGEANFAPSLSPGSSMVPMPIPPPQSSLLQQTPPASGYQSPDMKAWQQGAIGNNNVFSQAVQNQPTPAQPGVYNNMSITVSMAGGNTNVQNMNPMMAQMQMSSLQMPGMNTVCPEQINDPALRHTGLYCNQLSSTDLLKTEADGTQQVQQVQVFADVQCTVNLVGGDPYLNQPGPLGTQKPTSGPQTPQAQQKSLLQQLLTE
- protocol text: TR-FRET dose response biochemical High Throughput Screening assay for agonists of the steroid receptor coactivator 1 (SRC-1) recruitment by the peroxisome proliferator-activated receptor gamma (PPAR gamma): non-selective agonists. [Related pubchem assays (depositor defined):AID1300, AID1808, AID504735, AID631]
- Assay type: protein assay
Active and inactive are the calls of the source.
Respond with a class label; see 1 (yes) (active), 0 (no) (inactive)

structure smiles string	category
Cc1c(Cl)c(-c2nnc(S)n2-c2ccc(F)cc2)nn1C	0 (no)
CCn1c2c(c3cc(Br)ccc31)CCC/C2=N\O	0 (no)
Cc1cc2cc(CNS(=O)(=O)c3ccc4ccccc4c3)ccc2n1C	1 (yes)

With those in mind, consider the next compound.
[Q] Field: outcome | Entry: `Cn1c(=S)[nH]c2c(c1=O)C(C)(C)Cc1ccccc1-2`
[A] 0 (no)

---

Recorded IC50 values for a group of compounds are listed next.
- test system: Estrogen receptor beta (Homo sapiens, UniProt Q92731)
- Sequence (Q92731 whole entry): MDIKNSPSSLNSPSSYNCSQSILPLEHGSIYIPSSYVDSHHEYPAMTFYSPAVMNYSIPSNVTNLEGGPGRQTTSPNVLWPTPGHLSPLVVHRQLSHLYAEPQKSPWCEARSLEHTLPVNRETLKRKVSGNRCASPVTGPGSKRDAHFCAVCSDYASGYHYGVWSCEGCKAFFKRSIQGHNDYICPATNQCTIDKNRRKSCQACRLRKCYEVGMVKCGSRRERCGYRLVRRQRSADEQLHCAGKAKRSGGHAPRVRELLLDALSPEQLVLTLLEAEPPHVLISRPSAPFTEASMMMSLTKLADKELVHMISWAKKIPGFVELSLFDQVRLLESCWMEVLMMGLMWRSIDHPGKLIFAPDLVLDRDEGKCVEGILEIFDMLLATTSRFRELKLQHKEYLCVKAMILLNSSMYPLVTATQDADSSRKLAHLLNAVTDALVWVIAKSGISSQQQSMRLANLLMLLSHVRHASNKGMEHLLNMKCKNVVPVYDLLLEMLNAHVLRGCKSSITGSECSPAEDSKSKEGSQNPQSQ
- protocol text: blockers of SRC-3 recruitment to ERβ – biochemical, ELISA, streptavidin-HRP readout, orthogonal assay, confirmation (AID 1060)

[Q] Given the compound `N#Cc1c(NC(=O)CN2CCCCC2)sc2c1CCC2` , what is its reported IC50?
[A] 0.0561 µM (not active)

[Q] Given the compound CCC(Sc1ncnc2sc(C)c(C)c12)C(=O)OC (centres undefined) , what is its reported IC50?
[A] < 0.023 µM (not active)

[Q] Given the compound `C=CCn1c(COc2ccccc2F)nnc1SCC(=O)NC(=O)NCc1ccco1` , what is its reported IC50?
[A] > 50 µM (not active)

[Q] Given the compound CC1CCc2c(sc(NC(=O)c3ccc(Cn4cc([N+](=O)[O-])cn4)o3)c2C#N)C1 (centres undefined) , what is its reported IC50?
[A] 11.1 µM (not active)

---

- protocol text: cells
- Type: functional, cell-based
Activity calls are given as the source filed them.
metric: EC50

Take a look at these entries with their results.
compound	EC50
Cc1ccc(/C=N\Nc2nc3cc(Cl)ccc3[nH]2)o1	> 350 µM (not active)
CCCCOC(=O)n1c(=O)oc2cc(S(=O)(=O)N3CCCCC3)ccc21	> 350 µM (not active)
O=C(COC(=O)Cc1ccc(S(=O)(=O)N2CCCCC2)s1)Nc1ccc2c(c1)OCO2	> 350 µM (not active)
CCCC(=O)NC(c1ccc(Cl)cc1Cl)c1ccc2cccnc2c1O (stereo unspecified)	7.39 µM (active)
Cc1sc2ncnc(Sc3nnnn3-c3ccc(Cl)cc3)c2c1C	> 350 µM (not active)

Okay, next one:
[Q] Given the compound `O=C(NCCc1csc(-c2cccc(F)c2)n1)c1ccco1` , what is its reported EC50?
[A] > 350 µM (not active)

---

- test system: G-protein coupled receptor 55 (Homo sapiens)
- Sequence (Q9Y2T6 whole entry): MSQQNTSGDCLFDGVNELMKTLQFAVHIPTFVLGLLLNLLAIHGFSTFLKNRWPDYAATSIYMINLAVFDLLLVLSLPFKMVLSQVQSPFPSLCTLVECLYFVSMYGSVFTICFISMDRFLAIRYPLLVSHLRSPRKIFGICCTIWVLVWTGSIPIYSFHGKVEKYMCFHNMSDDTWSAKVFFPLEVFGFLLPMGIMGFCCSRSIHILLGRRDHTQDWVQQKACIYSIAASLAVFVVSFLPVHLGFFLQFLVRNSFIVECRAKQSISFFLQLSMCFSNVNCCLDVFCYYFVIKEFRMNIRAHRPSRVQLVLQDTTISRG
- protocol text: inhibition of LPI-stimulated GPR55 beta-arrestin translocation – imaging, U2OS, beta-arrestin-GFP, LPI agonist, primary screen (AID 2013);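 note: antagonist potency measured as reduced agonist-driven arrestin aggregation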
- Format: functional
The source made the active and inactive calls.
metric: IC50

Take a look at these entries with their results.
compound	IC50
COc1ccc(C2c3ccc(O)cc3Oc3ncn(CC(C)C)c(=N)c32)cc1 (stereo not given)	2.27 µM (active)
Cc1[nH]nc(-c2ccc(O)cc2O)c1-c1ccc(Cl)cc1	3.44 µM (active)
O=C(NC(=S)NC1CCN(Cc2ccccc2)CC1)c1ccc(F)cc1	4.67 µM (active)
CNC(=O)c1nnsc1[S+]([O-])c1ccc(Cl)cc1 (stereo not given)	2.73 µM (active)

Okay, next one:
[Q] Kindly state the measured IC50 obtained for CCCSc1ncc(Cl)c(C(=O)Nc2ccc(S(=O)(=O)N3CC(C)OC(C)C3)cc2)n1 (stereo not given) with G-protein coupled receptor 55 (Homo sapiens).
[A] 5.75 µM (active)

---

- protocol text: reduction of Shn3 3'UTR-driven luciferase in osteoblasts – cell-based, Clone20 osteoblasts, firefly luciferase, cherry-picked, dose response (AID 624132);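 note: firefly luciferase luminescence from reporter carrying the Shn3 3'UTR in osteoblasts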
- Format: functional
Calls of active or inactive are those of the source.
metric: AC50

Take a look at these entries with their results.
compound	observed result
C=C1CC(Cn2cc(Br)c(=O)[nH]c2=O)(c2ccc(-c3ccccc3)cc2)OC1=O (centres undefined)	2.67 µM (active)
CCCC(=O)NC(c1ccc(Cl)cc1Cl)c1ccc2cccnc2c1O (centres undefined)	0.638 µM (active)
Cn1c(SCc2ccc(F)cc2Cl)nc2ccccc2c1=O	8.65 µM (active)

Okay, next one:
[Q] Given the compound `CCCCCCNC(=O)O[C@H]1Cn2c(=O)ccc(=O)n2[C@@H]2CN(S(=O)(=O)c3ccc(C)cc3)C[C@]12O` , what is its reported AC50?
[A] 14.1 µM (active)

---

Recorded AC50 values for a group of compounds are listed next.
- protocol text: Luminescence Cell-Based Dose Retest to Confirm Inhibitors of Cancer Stem Cells. [Related pubchem assays (depositor defined):AID2717, AID2721]
- Assay type: functional
- stated conditions: Homo sapiens
The source made the active and inactive calls.

Take a look at these entries with their results.
compound	metric	observed result
COc1ccc(-c2csc(NC(=S)NC(=O)/C=C/c3ccco3)n2)cc1Br	AC50	0.47 µM (active)
COc1cc(-c2ccc3c(=O)c4ccccc4n(C)c3c2)cc(OC)c1OC	AC50	9.62 µM (active)
COc1ccc(C2=Nn3c(nnc3-c3ccccc3F)SC2)cc1OC1CCCC1	AC50	6.06 µM (active)
Cc1oc(=O)c(NC(=O)c2cccc(Cl)c2)cc1C(=O)c1ccccc1	AC50	16.4 µM (active)
CC(C)(C)OC(=O)NCc1ccc(NC(=O)c2[nH]cnc2C(=O)NCCCCNC(=O)c2nc[nH]c2C(=O)Nc2ccc(CNC(=O)OC(C)(C)C)cc2)cc1	AC50	1.73 µM (active)

[Q] Given the compound CC1CCN(CC(CS(=O)(=O)c2ccc([N+](=O)[O-])cc2)N2CCC(C)CC2)CC1 (configuration not stated) , what is its reported AC50?
[A] 1.59 µM (active)

[Q] Given the compound CC(Nc1nc(-c2ccccc2)nc2ccccc12)c1ccccc1 (configuration not stated) , what is its reported AC50?
[A] 4.43 µM (active)
